biological target: Peroxisome proliferator-activated receptor gamma (Homo sapiens, UniProt P37231); experiment: Agonist activity at GAL4 tagged human PPARgamma ligand binding domain expressed in HEK293 cells by luciferase reporter gene assay
Sequence (P37231 whole entry, the tested form may be a part): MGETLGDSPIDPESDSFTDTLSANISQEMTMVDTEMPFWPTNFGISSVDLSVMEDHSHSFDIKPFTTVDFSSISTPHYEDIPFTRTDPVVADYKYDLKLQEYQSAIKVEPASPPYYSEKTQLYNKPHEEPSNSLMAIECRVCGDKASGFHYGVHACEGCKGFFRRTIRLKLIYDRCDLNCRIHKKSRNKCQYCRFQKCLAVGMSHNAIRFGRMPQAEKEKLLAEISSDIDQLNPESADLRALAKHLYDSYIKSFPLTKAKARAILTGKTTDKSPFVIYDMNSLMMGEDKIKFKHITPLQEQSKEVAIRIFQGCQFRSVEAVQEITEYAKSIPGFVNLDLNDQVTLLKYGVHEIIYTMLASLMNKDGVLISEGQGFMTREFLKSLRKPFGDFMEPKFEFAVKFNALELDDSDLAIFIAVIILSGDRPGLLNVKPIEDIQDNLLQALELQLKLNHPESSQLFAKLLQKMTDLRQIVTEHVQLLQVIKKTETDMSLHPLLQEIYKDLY
Measured EC50, listed per entry.
Entry rule: numbers only, all in µM.

Example cases with answers are listed next.
Cc1oc(-c2ccccc2)nc1CCOc1cccc(C[C@@H]2CN(c3ccccc3)C[C@@H]2C(=O)O)c1 (racemic)
3.41
Cc1oc(-c2ccccc2)nc1CCOc1ccc(C[C@@H]2CN(c3nccc(C(F)(F)F)n3)C[C@@H]2C(=O)O)cc1 (racemic)
0.05

Below: the item to evaluate.
Task item: Fill in EC50 for Cc1oc(-c2ccccc2)nc1CCOc1cccc([C@@H]2CN(C(=O)Oc3ccccc3)C[C@@H]2CC(=O)O)c1 (racemic) tested with Peroxisome proliferator-activated receptor gamma (Homo sapiens, UniProt P37231).
Reply: 4.8

Entry source: ChEMBL document CHEMBL3396995
